# credit: paper PMC7615677

Experiment: In vivo pharmacokinetics
Parameters: species or system female golden Syrian hamsters
Settings: female, golden Syrian, hamster, plasma; hamsters, oral 12.5 mg/kg qd, 5 days; read-out: AUC96-120 (last dose)
Method: Additional PK studies were also conducted by WuXi AppTec Co, Ltd (Shanghai, China) according to protocols reviewed and approved by DNDi. […] IV and oral formulations for rats, mice and hamsters were the same as described above. For dogs, the IV dose was administered in saline containing 2% DMSO and 3% Solutol HS-15 and the oral formulation was as described above. […]
property label: AUC

AUC measured on Cc1[nH]c2nc(N)nc(C)c2c1-c1ccc(C#N)c2c1OCO2 [DNDI-6174] = 30200 ng·h/mL

====

test: Compartmental PK modelling and repeat-dose simulation; set-up: species or system mice; details: mouse, plasma, po; Mice, 3.6 mg/kg, fitted
property label: CL/F (mL/min/kg)
Express it in mL/min/kg; write the number only.

So, Cc1[nH]c2nc(N)nc(C)c2c1-c1ccc(C#N)c2c1OCO2 [DNDI-6174] ? Its CL/F was 12.4

====

molecular target: CYP2B6 (Homo sapiens); construct: incubation of isoform-specific substrates with human liver microsomes; from tissue; host or cells: human liver microsomes; test: Cytochrome P450 inhibition, human liver microsomes; type: in vitro ADME; settings: without NADPH preincubation; read-out: Time-dependent inhibition IC50
Sequence (P20813 whole entry, canonical isoform): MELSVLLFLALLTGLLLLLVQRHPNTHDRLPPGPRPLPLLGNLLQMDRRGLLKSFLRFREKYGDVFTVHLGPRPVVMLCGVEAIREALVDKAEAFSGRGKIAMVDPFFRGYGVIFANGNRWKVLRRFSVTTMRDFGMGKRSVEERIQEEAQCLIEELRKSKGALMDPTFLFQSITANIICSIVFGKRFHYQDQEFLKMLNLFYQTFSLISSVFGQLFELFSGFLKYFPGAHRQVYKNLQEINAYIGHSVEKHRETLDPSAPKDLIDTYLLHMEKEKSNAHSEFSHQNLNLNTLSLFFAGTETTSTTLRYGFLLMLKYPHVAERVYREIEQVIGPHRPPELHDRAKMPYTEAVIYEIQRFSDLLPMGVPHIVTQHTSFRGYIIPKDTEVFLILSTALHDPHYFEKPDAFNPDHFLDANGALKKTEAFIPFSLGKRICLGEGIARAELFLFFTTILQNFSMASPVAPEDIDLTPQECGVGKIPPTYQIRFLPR
pIC50: −log10 of the molar value.
property label: pIC50

Consider "Cc1[nH]c2nc(N)nc(C)c2c1-c1ccc(C#N)c2c1OCO2" . Its measured pIC50 is < 4.70

====

system: CYP3A4/5; experiment: Cytochrome P450 inhibition, human liver microsomes; type: in vitro ADME; conditions: probe testosterone (6β-hydroxylation), testosterone, with NADPH preincubation, read-out: Time-dependent inhibition IC50
property label: IC50 at 30 min (nM)
Unit nM implied. Number only.

Per the records, this molecule ( Cc1[nH]c2nc(N)nc(C)c2c1-c1ccc(C#N)c2c1OCO2 [DNDI-6174] ) has IC50 at 30 min equal to 710

====

assay: Compartmental PK modelling and repeat-dose simulation; design: species or system hamsters; settings: hamster, plasma, po, 25 mg/kg, hamsters, 25 mg/kg qd, 5 days, simulated; read-out: AUC24 ss
property label: AUC (ng·h/mL)
API: value field is a number in ng·h/mL; no unit string.

Just so you know, measured AUC for Cc1[nH]c2nc(N)nc(C)c2c1-c1ccc(C#N)c2c1OCO2 [DNDI-6174] came out at 48600

====

assay: In vivo pharmacokinetics; set-up: species or system male beagle dogs; conditions: male, beagle, dog, plasma, po, 30 mg/kg, dogs, single oral 30 mg/kg; read-out: AUC0-∞
property label: AUC(0-inf) (µg·h/mL)
Report the value in µg·h/mL with no unit label.

What the record says about "Cc1[nH]c2nc(N)nc(C)c2c1-c1ccc(C#N)c2c1OCO2" : AUC(0-inf) is 255

====

tested on: L. donovani promastigote cultures; test: microbe, parasite or virus in culture; type: cell-based; details: Leishmania donovani, WT; read-out: EC50 (representative curve, Fig. 2A)
property label: pEC50
Keep in mind that pEC50 stands for -log10 of concentration in molar terms.

Lookup result for "Cc1[nH]c2nc(N)nc(C)c2c1-c1ccc(C#N)c2c1OCO2" ; measured pEC50: 7.66
